Where these numbers come from: patent US11351178B2

assay: Pharmacokinetics after single intravenous and oral administration to the mouse; details: plasma, po, 5.2 mg/kg
Reported Property: bioavailability (%)
Numbers only, in %.

For record O=C(NO)c1ccc(Cn2nnnc2-c2cccs2)cc1 the listed bioavailability is 18.5

---

Assay read-out pIC50; system under study: HDAC7 (Homo sapiens).
Sequence (Q8WUI4 518-952 limits assumed): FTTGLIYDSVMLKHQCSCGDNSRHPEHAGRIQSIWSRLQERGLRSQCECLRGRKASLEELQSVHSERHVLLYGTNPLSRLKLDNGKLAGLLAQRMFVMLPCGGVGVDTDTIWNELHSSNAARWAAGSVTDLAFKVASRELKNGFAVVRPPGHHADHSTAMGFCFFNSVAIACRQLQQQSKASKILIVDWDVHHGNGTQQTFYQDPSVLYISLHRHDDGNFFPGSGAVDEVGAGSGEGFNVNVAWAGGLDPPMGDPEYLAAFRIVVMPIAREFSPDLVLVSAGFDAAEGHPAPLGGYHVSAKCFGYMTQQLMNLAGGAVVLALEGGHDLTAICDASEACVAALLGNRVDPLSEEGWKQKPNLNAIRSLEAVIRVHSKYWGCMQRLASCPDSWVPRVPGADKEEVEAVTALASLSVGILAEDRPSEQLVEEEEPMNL
Answers are plain numbers, as −log10 of the molar value.

Reference set, count: 5
# Smiles Entry, Experimental Value
rows = [
    ("Cn1c(Sc2ccc(C(=O)NO)cc2)nnc1-c1cccs1", 6.09),
    ("Cn1c(Sc2c(F)cc(C(=O)NO)cc2F)nnc1C(c1ccccc1)c1ccccc1", 5.70),
    ("Cc1cc(-c2nnc(Sc3ccc(C(=O)NO)cc3)n2C)nn1C", 6.29),
    ("Cn1c(Sc2c(F)cc(C(=O)NO)cc2F)nnc1-c1cccc2ccccc12", 5.96),
    ("Cn1c(Sc2c(F)cc(C(=O)NO)cc2F)nnc1-c1cccs1", 6.26),
]

Please state, for each entry, its recorded pIC50.
1. O=C(NO)c1cc(F)c(Cn2nnc(-c3ccccn3)n2)c(F)c1
2. CCN(CC)S(=O)(=O)c1cccc(-c2nnc(Sc3ccc(C(=O)NO)cc3)n2N)c1
3. O=C(NO)c1cc(F)c(Cn2nnc(-c3ccco3)n2)c(F)c1
4. CN(C)c1cccc(-c2nnc(Sc3c(F)cc(C(=O)NO)cc3F)n2C)c1

-- reply
[6.12, 6.28, 5.99, 6.12]

---

test: Stability to Phase I metabolism in rat S9 liver fraction; assay type: in vitro ADME; conditions: after 90 min, 37° C.
Tag: 1 if measured residual percentage in rat S9 fraction is not below 40%, -1 if it is.

# Smiles Entry, Class Label
records = [
    ("O=C(NO)c1cc(F)c(Cn2nnnc2-c2cccs2)c(F)c1", 1),
    ("O=C(NO)c1cc(F)c(Sc2nnc(-c3cccnc3)s2)c(F)c1", -1),
    ("Cn1c(Sc2c(F)cc(C(=O)NO)cc2F)nnc1C1(c2cccc(F)c2)CCCC1", -1),
]

-- ask Quick check, residual percentage in rat S9 fraction >= 40%? Cn1c(Sc2c(F)cc(C(=O)NO)cc2F)nnc1-c1cccc(S(=O)(=O)N2CCN(Cc3ccccc3)CC2)c1
-- reply -1

-- ask Quick check, residual percentage in rat S9 fraction >= 40%? O=C(NO)c1cc(F)c(Cn2nnnc2-c2ccccn2)c(F)c1
-- reply 1

-- ask Quick check, residual percentage in rat S9 fraction >= 40%? O=C(NO)c1cc(F)c(Cn2nnnc2-c2ccc(C(F)(F)F)cn2)c(F)c1
-- reply 1

-- ask Quick check, residual percentage in rat S9 fraction >= 40%? O=C(NO)c1ccc(Cn2nnnc2Cc2ccccc2)cc1
-- reply 1

-- ask Quick check, residual percentage in rat S9 fraction >= 40%? O=C(NO)c1ccc(Cn2nnc(-c3nccc4ccccc34)n2)cc1
-- reply 1

-- ask Quick check, residual percentage in rat S9 fraction >= 40%? O=C(NO)c1ccc(Cn2nnc(-c3cc4ccccc4s3)n2)cc1
-- reply 1

-- ask Quick check, residual percentage in rat S9 fraction >= 40%? O=C(NO)c1cc(F)c(Sc2nnc(N3CCOCC3)n2Cc2ccccc2)c(F)c1
-- reply 1

-- ask Quick check, residual percentage in rat S9 fraction >= 40%? Cn1c(Sc2c(F)cc(C(=O)NO)cc2F)nnc1-c1ccc(CN2CCCCC2)o1
-- reply 1

-- ask Quick check, residual percentage in rat S9 fraction >= 40%? COc1ccc(-c2nnc(Cc3ccc(C(=O)NO)cc3)o2)cc1OC
-- reply 1

-- ask Quick check, residual percentage in rat S9 fraction >= 40%? Cn1c(Sc2c(F)cc(C(=O)NO)cc2F)nnc1-c1ccc(CN2CCOCC2)o1
-- reply 1

-- ask Quick check, residual percentage in rat S9 fraction >= 40%? CN(C)S(=O)(=O)c1cccc(-c2nnn(Cc3ccc(C(=O)NO)cc3)n2)c1
-- reply -1

-- ask Quick check, residual percentage in rat S9 fraction >= 40%? O=C(NO)c1cc(F)c(Cn2nnc(Cc3ccccn3)n2)c(F)c1.O=C(O)C(F)(F)F
-- reply 1

-- ask Quick check, residual percentage in rat S9 fraction >= 40%? Cn1c(Sc2c(F)cc(C(=O)NO)cc2F)nnc1C1(c2ccccc2)CCN(Cc2ccccc2)CC1
-- reply -1

-- ask Quick check, residual percentage in rat S9 fraction >= 40%? O=C(NO)c1ccc(Cn2nnc(Cc3ccccc3)n2)cc1
-- reply -1

---

assay: Stability in rat plasma; format: in vitro ADME; conditions: after 4 hours, 37° C.
Mark met only for residual percentage in rat plasma values smaller than 90%; exact matches and larger values are not met.

Below, 6 molecules whose answers are already recorded.
# Smiles Entry, Class Label
measured = [
    ("Cn1c(Sc2c(F)cc(C(=O)NO)cc2F)nnc1-c1cccnn1", "not met"),
    ("CCn1c(Sc2ccc(C(=O)NO)cc2)nnc1-c1ccc(F)cc1", "met"),
    ("COc1ccc(C(=O)N[C@@H](Cc2cscn2)c2nc(Cc3ccc(C(=O)NO)cc3)no2)cc1OC", "met"),
    ("Nc1ccc(-c2nnn(Cc3c(F)cc(C(=O)NO)cc3F)n2)cc1", "met"),
    ("CN1CCN(S(=O)(=O)c2cccc(-c3nnc(Sc4c(F)cc(C(=O)NO)cc4F)n3C)c2)CC1", "met"),
    ("Cc1nc(N2CCOCC2)sc1-c1nnc(Sc2c(F)cc(C(=O)NO)cc2F)n1C", "not met"),
]

-- ask For O=C(NO)c1cc(F)c(Cc2noc(-c3cncc(N4CC5(COC5)C4)c3)n2)c(F)c1 , is the recorded residual percentage in rat plasma below the cut-off of 90%?
-- reply not met

-- ask For Cc1nc(Sc2ccc(C(=O)NO)cc2)nn1-c1ccc(Cl)cc1Cl , is the recorded residual percentage in rat plasma below the cut-off of 90%?
-- reply met

-- ask For O=C(NO)c1ccc(Cn2nnc(Cc3ccccc3)n2)cc1 , is the recorded residual percentage in rat plasma below the cut-off of 90%?
-- reply met

---

assay: Stability to Phase I metabolism in rat S9 liver fraction; type: in vitro ADME; settings: after 90 min, 37° C.
Tag: Satisfied if measured residual percentage in rat S9 fraction is not below 60%, Not satisfied if it is.

# Smiles Entry, Class Label
rows = [
    ("CCN(CC)Cc1cc(-c2nnc(Sc3c(F)cc(C(=O)NO)cc3F)n2C)c(C)o1", "Not satisfied"),
    ("Cn1c(Sc2c(F)cc(C(=O)NO)cc2F)nnc1-c1cnc2ccccn12", "Satisfied"),
    ("O=C(NO)c1cc(F)c(Sc2nnc(CN3CCCCC3)n2-c2ccc(F)cc2)c(F)c1", "Not satisfied"),
    ("O=C(NO)c1ccc(Cc2nnc(-c3ccccc3)s2)cc1", "Not satisfied"),
]

Could you now consider this next molecule?
-- ask Quick check, residual percentage in rat S9 fraction >= 60%? O=C(NO)c1ccc(Cn2nnnc2-c2ccc3ccccc3n2)cc1
-- reply Not satisfied

---

test: Stability in rat plasma; type: in vitro ADME; settings: after 4 hours, 37° C.
Reported Property: residual percentage in rat plasma (%)
Numbers only, in %.

# Smiles Entry, Reported Property, Unit Of Measurement, Experimental Value
records = [
    ("O=C(NO)c1ccc(Cn2nnc(-c3ccc(Cl)cc3)n2)cc1", "residual percentage in rat plasma", "%", 76),
    ("O=C(NO)c1cc(F)c(Cn2nnc(-c3ccccn3)n2)c(F)c1", "residual percentage in rat plasma", "%", 87),
    ("Cn1c(Sc2c(F)cc(C(=O)NO)cc2F)nnc1C(C)(C)c1ccccc1", "residual percentage in rat plasma", "%", 106),
    ("Cn1c(Sc2c(F)cc(C(=O)NO)cc2F)nnc1C1(c2cccc(F)c2)CCCC1", "residual percentage in rat plasma", "%", 82),
    ("CN(C)c1cccc(-c2nnc(Sc3c(F)cc(C(=O)NO)cc3F)n2C)c1", "residual percentage in rat plasma", "%", 77),
]

Please state, for each entry, its recorded residual percentage in rat plasma.
1. O=C(NO)c1ccc(Cn2nnc(-c3ccccc3)n2)cc1
2. Cc1ccsc1-c1nnn(Cc2ccc(C(=O)NO)cc2)n1
3. O=C(NO)c1cc(F)c(Cc2nnc(-c3ccccc3)s2)c(F)c1
4. Cc1cc(-c2nnc(Sc3c(F)cc(C(=O)NO)cc3F)n2C)nn1C
5. O=C(NO)c1cc(F)c(Cn2nnc(-c3cccs3)n2)c(F)c1
6. O=C(NO)c1cc(F)c(Cn2nnnc2-c2ccccn2)c(F)c1
7. Cn1c(Sc2c(F)cc(C(=O)NO)cc2F)nnc1-c1ccccn1
8. O=C(NO)c1cc(F)c(Cn2nnnc2-c2ccco2)c(F)c1

-- reply
1: 60; 2: 63; 3: 63; 4: 80; 5: 88; 6: 96.7; 7: 38; 8: 79

---

assay: Pharmacokinetics after single intravenous and oral administration to the mouse; conditions: plasma, iv, 1.3 mg/kg
Reported Property: Vd (L/kg)
One number for each entry, in L/kg.

For record Cn1c(Sc2c(F)cc(C(=O)NO)cc2F)nnc1-c1cccs1 the listed Vd is 16.8
